Target: mouse c-Myc (mouse, UniProt P01108-2)
Assay: cell-based or functional assay
Known fold suppression of c-myc/RAS foci formation, REF cooperation assay of a selection of binders
Give the value; after it, write the unit.

{"Binder": "mouse Mxi-WR protein (other) MPSPRLQHSKPPRRLSRAQKHSSGSSNTSTANRSTHNELEKNRRAHLRLCLKRLKVLIPLGPDCTRHTTLGLLNKAKAHIKKLEEAERKSQHQLENLEREQRFLKRRLEQLQGPQEMERIRMDSIGSTISSDRSDSEREEIEVDVESTEFSHGKADSVSTTSISDLDDHSSLQSVGSDEGYSSASVKLSFAS", "Meas Value": "1.74 fold suppression"}
{"Binder": "human MXI protein (other) MERVKMINVQRLLEAAEFLERRERECEHGYASSFPSMPSPRLQHSKPPRRLSRAQKHSSGSSNTSTANRSTHNELEKNRRAHLRLCLKRLKVLIPLGPDCTRHTTLGLLNKAKAHIKKLEEAERKSQHQLENLEREQRFLKWRLEQLQGPQEMERIRMDSIGSTISSDRSDSEREEIEVDVESTEFSHGKVDNISTTSISDIDDHSSLPSIGSDEGYSSASVKLSFTS", "Meas Value": "5.3 fold suppression"}

Then there is this binder:
## Input Item mouse Mxi-SR protein (other) MERVRMINVQRLLEAAEFLERRERECEHGYASSFPSMPSPRLQHSKPPRRLSRAQKHSSGSSNTSTANRSTHNELEKNRRAHLRLCLKRLKVLIPLGPDCTRHTTLGLLNKAKAHIKKLEEAERKSQHQLENLEREQRFLKRRLEQLQGPQEMERIRMDSIGSTISSDRSDSEREEIEVDVESTEFSHGKADSVSTTSISDLDDHSSLQSVGSDEGYSSASVKLSFAS : provide fold suppression of c-myc/RAS foci formation, REF cooperation assay
## Output 8.1 fold suppression
